Cited source for all entries: patent US20160040149A1

assay: Saturation mutagenesis of SEQ ID NO:109: dicamba decarboxylation activity of point mutants (CO2 released), fold of backbone (Tables 7, 8, Megatable 1); conditions: decarboxylation activity (CO2 released) of point mutant vs unmutated backbone protein; backbone SEQ ID NO: 109
measurement.label: Fold Activity (fold)

- 97 (protein, listed as Sphingobium sp.) MAMMIIDCHGHYTVLPKAHDEWREQQKAAFKAGQPAPPYPEISDDEIRETIEANQLRLIKERGADMTIFSPRASAMAPHVGDQSVAVPWAQACNNLIARVVDLFPETFAGVCMLPQSPEADMTSSIAELERCVNELGFIGCNLNPDPGGGHFKHPPLTDRFWYPFYEKMVELDVPAMIHVSGSCNPAMHATGAYYLAADTIAFMQLLQGNLFADFPTLRFIIPHGGGAVPYHWGRFRGLADMLKQPSLDTLLMNNVFFDTCVYHQPGINLLADVIDNKNILFGSEMVGAVRGIDPTTGHYFDDTKRYIDALDISDQERHAIFEGNTRRVFPRLDAKLKARGL: 2.9
- 80 (protein, listed as Cordyceps militaris) MAAASTPVVVDIHTHMYPPSYIAMLEKRQTIPLVRTFPQADEPRLILLSSELAALDAALADPAAKLPGRPLSTHFASLAQKMHFMDTNGIRVSVISLANPWFDFLAPDEAPGIADAVNAEFSDMCAQHVGRLFFFAALPLSAPVDAVKASIERVKNLKYCRGIILGTSGLGKGLDDPHLLPVFEAVADAKLLVFLHPHYGLPNEVYGPRSEEYGHVLPLALGFPMETTIAVARMYMAGVFDHVRNLQMLLAHSGGTLPFLAGRIESCIVHDGHLVKTGKVPKDRRTIWTVLKEQIYLDAVIYSEVGLQAAIASSGADRLMFGTDHPFFPPIEEDVQGPWDSSRLNAQAVIKAVGEGSSDAAAVMGLNAVRVLSLKAE: 0.8
- 112 (protein, Dicamba decarboxylase variant clone: DC.4.113) MAQGKVALEEHFAIPETLQDSAGFVPGDYWKELVHRLLDIQDTRLKLMDAHGIETMILSLNAPAVQAIPDRRKAIEIARRANDVLAEECAKRPDRFLAFAALPLQDPDAATEELQRCVNDLGFVGALVNGFSQEGDGQTPLYYDLPQYRPFWGEVEKLDVPFYLHPRNPLPQDSRIYDGHPWLLGPTWAFAQETAVHALRLMASGLFDEHPRLNIILGHMGEGLPYMMWRIDHRVAWVKLPPRYPAKRRFMDYFNENFHITTSGNFRTQTLIDAILEIGADRILFSTDWPFENIDHASDWFNATSIAEADRVKIGRTNARRLFKLDGA: 1.2
- 40 (protein, listed as Rhodococcus jostii) MAQGKIALEEHFAIPETLNDSAGFVPGTYWDELQARLLDIQDVRLKLMDEHNIETMILSLNAPAVQAIPERERAIDIARRANDVLAEECAKRPDRFRGFAALPLQDPDAAAEELRRCVTELGFVGALVNGFSQSATVDGGSTPLYYDLPRYRPFWAEVERLDVPFYLHPRNPLNQDARIYEGHPWLLGPTWAFAQETAVHALRLMASGLFDEHPGLRIVLGHMGEGIPAMLWRIDHRNAWVDVPPAYPAKRRMVDYFTENFFVTTSGNFRTQTLIDLLLELGSERVMFSTDWPFENINHAAEWFDAASISEADRLKIGRTNAATLFKLDR: 1.4
